Where do the numbers come from? From patent US20090312575A1.

- TEST_SUMMARY: solubility profile at room temperature in organic solvents
- Format: physicochemical
- RECORDED_CONDITIONS: acetonitrile, organic solvent or mixture, acetonitrile (reaction mixture solvent); read-out: solubility in acetonitrile
READOUT_LABEL: solubility

[
  {
    "MOLECULE": "CSC(C(N)=O)c1cccc(C(=O)c2ccccc2)c1N (stereo not shown) [compound (IV) Form B]",
    "READOUT_LABEL": "solubility",
    "READING": "~5900 µg/mL"
  }
]

----------
- TEST_SUMMARY: solubility profile at room temperature in organic solvents
- Format: physicochemical
- RECORDED_CONDITIONS: 1:1 mixture of tetrahydrofuran/water, aqueous with cosolvent or surfactant or cyclodextrin, 1:1 tetrahydrofuran/water, room temperature; read-out: solubility in a 1:1 mixture of tetrahydrofuran/water
READOUT_LABEL: solubility

[
  {
    "COMPOUND": "CSC(C(N)=O)c1cccc(C(=O)c2ccccc2)c1N (stereo not shown) [compound (IV) Form A]",
    "READOUT_LABEL": "solubility",
    "READING": "~50 mg/mL"
  }
]
